Values were extracted from paper PMC3705450.

# System Tested: T1, LuxR T52M/I24V (Vibrio harveyi, UniProt P21308 1-205, T52M;I24V)
# T1 sequence: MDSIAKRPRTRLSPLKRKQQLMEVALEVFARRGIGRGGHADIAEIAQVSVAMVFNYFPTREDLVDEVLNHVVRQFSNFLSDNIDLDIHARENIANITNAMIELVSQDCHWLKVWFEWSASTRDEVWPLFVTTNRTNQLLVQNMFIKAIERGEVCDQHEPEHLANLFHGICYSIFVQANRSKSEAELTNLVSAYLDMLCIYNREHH
# Test Details: EMSA
pKd: −log10 of the molar value.
Endpoint Name: pKd

>>> quantitative_readout("P05222 site 31mer (dsDNA) DNA 1: CTAGTACTGACAAAAAAGTTAATATTTTGTT DNA 2: AACAAAATATTAACTTTTTTGTCAGTACTAG")
7.25
